EC50 overview
Biological target: GPR40 of human origin (Homo sapiens)
Sequence (O14842 whole entry): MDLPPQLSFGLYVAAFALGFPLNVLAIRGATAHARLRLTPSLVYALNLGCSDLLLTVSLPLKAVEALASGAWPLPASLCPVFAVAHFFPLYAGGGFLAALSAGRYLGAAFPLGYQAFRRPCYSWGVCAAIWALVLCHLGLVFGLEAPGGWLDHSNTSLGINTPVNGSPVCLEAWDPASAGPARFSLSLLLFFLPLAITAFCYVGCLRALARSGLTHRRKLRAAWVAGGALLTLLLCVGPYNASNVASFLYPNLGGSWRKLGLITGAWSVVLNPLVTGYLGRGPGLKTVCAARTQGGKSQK
Test: Agonist action on GPR40 of human origin (Ca2+ fluorescence in a CHO cell strain stably expressing GPR40)
Settings: Ca2+ concentration fluctuation, fluorescence intensity

molecule	EC50
Cc1cc(OC[C@H](O)CO)cc(C)c1-c1cccc(COc2ccc(-c3cc(O)no3)cc2)c1C [Example 44]	< 300 nM
Cc1nc(OCCC(C)(C)O)ccc1-c1cccc(COc2ccc(-c3cc(O)no3)cc2)c1C [Example 39]	< 300 nM
Cc1cc(OCCC(C)(C)O)nc(C)c1-c1cccc(COc2ccc(-c3cc(O)no3)cc2)c1 [Example 41]	< 300 nM
Cc1cc(OCCC(C)(C)O)cc(C)c1-c1cccc2c1CCC2Oc1ccc(-c2cc(O)no2)cc1 (centres unmarked) [Example 37]	< 300 nM
Cc1cc(OCCC(C)(C)O)cc(C)c1-c1cccc(COc2ccc(-c3cc(O)no3)cc2)c1C [Example 45]	< 300 nM
Cc1c(COc2ccc(-c3cc(O)no3)cc2)cccc1-c1cnc(OCCC(C)(C)O)c(C)c1C [Example 46]	< 300 nM
Oc1cc(-c2ccc(OC3CCc4c(-c5ccc6c(c5)OCCO6)cccc43)cc2)on1 (centres unmarked) [Example 34]	300 to 3000 nM
Cc1cc(-c2cccc(COc3ccc(-c4cc(O)no4)cc3)c2C)c(C)nc1OCCC(C)(C)O [Example 47]	< 300 nM
Cc1cc(OCCC(C)(C)O)nc(C)c1-c1cccc2c1CCC2Oc1ccc(-c2cc(O)no2)cc1 (centres unmarked) [Example 24]	< 300 nM
Oc1cc(-c2ccc(OC3CCc4c(Cc5ccccc5)cccc43)cc2)on1 (centres unmarked) [Example 30]	< 300 nM
Cc1cc(OCCCS(C)(=O)=O)cc(C)c1-c1cccc(COc2ccc(-c3cc(O)no3)cc2)c1 [Example 42]	< 300 nM
COc1cccc(-c2cccc3c2CCC3Oc2ccc(-c3cc(O)no3)cc2)c1 (centres unmarked) [Example 21]	< 300 nM
Oc1cc(-c2ccc(OC3CCc4c(Oc5ccccc5)cccc43)cc2)on1 (centres unmarked) [Example 26]	< 300 nM
Oc1cc(-c2ccc(OC3Cc4ccccc4C3)cc2)on1 [Example 2]	< 300 nM
Oc1cc(-c2ccc(OC3CCc4cc(Br)ccc43)cc2)on1 (centres unmarked) [Example 14]	300 to 3000 nM
Oc1cc(-c2ccc(OC3CCc4c(-c5ccc6cc[nH]c6c5)cccc43)cc2)on1 (centres unmarked) [Example 35]	300 to 3000 nM
Oc1cc(-c2ccc(OC3CCc4c3ccc(Cl)c4Cl)cc2)on1 (centres unmarked) [Example 19]	300 to 3000 nM

====

Molecular target: GPR40 of human origin (Homo sapiens)
Assay: Agonist action on GPR40 of human origin (Ca2+ fluorescence in a CHO cell strain stably expressing GPR40)
Conditions: Ca2+ concentration fluctuation, fluorescence intensity
assay.metric: EC50

molecule	assay.metric	readout.value
N#Cc1cccc2c1CCC2Oc1ccc(-c2cc(O)no2)cc1 (stereo not shown) [Example 12]	EC50	300 to 3000 nM
Oc1cc(-c2ccc(OC3CCc4c(Cl)cccc43)cc2)on1 (stereo not shown) [Example 11]	EC50	< 300 nM
COc1ncccc1-c1cccc2c1CCC2Oc1ccc(-c2cc(O)no2)cc1 (stereo not shown) [Example 23]	EC50	< 300 nM
Oc1cc(-c2ccc(NC3CCc4cc(Cl)ccc43)cc2)on1 (stereo not shown) [Example 31]	EC50	300 to 3000 nM
Oc1cc(-c2ccc(OC3CCc4c(OCc5ccccc5C(F)(F)F)cccc43)cc2)on1 (stereo not shown) [Example 29]	EC50	300 to 3000 nM
Cc1cc(OCCCN2CCCC2=O)cc(C)c1-c1cccc(COc2ccc(-c3cc(O)no3)cc2)c1 [Example 43]	EC50	< 300 nM
Cc1cc(OCC[C@@H](C)O)cc(C)c1-c1cccc2c1CCC2Oc1ccc(-c2cc(O)no2)cc1 (stereo partly shown) [Example 36]	EC50	< 300 nM
Cc1cc(OCCC(C)(C)O)nc(C)c1-c1cccc(COc2ccc(-c3cc(O)no3)cc2)c1C [Example 40]	EC50	< 300 nM
Oc1cc(-c2ccc(OC3CCc4cc(Cl)ccc43)cc2)on1 (stereo not shown) [Example 13]	EC50	300 to 3000 nM
Cc1cc(OCCC(C)(C)O)ncc1-c1cccc(COc2ccc(-c3cc(O)no3)cc2)c1C [Example 38]	EC50	< 300 nM
